TARGET_OF_ASSAY: 5-HT1A receptor (Homo sapiens, UniProt P08908)
Sequence (P08908 1-422): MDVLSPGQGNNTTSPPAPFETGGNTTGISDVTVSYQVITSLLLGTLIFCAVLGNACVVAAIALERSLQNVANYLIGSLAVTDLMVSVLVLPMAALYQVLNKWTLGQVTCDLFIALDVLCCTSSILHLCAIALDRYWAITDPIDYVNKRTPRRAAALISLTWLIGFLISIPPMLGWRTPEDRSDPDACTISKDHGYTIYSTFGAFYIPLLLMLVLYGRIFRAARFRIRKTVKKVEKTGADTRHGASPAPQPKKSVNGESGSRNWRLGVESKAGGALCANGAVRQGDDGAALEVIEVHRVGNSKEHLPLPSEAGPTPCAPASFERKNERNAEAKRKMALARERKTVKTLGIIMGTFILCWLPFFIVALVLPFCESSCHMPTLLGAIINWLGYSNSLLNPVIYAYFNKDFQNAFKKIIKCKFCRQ
PROTOCOL_DESCRIPTION: Equilibrium receptor binding, recombinant human receptor
Consider the following molecules and their measured Ki readings.
Reply with a number, then the unit it belongs to.

MOLECULE	TARGET_OF_ASSAY	ASSAY_METRIC	TEST_VALUE
CN(C)CCC=C1c2ccccc2C=Cc2ccccc21 [cyclobenzaprine]	5-HT1A receptor (Homo sapiens, UniProt P08908)	Ki	1100 nM
CN(C)CCC=C1c2ccccc2CCc2ccccc21 [amitriptyline]	5-HT1A receptor (Homo sapiens, UniProt P08908)	Ki	220 nM
CNCCC=C1c2ccccc2CCc2ccccc21 [nortriptyline]	5-HT1A receptor (Homo sapiens, UniProt P08908)	Ki	100 nM

Consider now this further molecule.
// Ki value for CNCCC=C1c2ccccc2C=Cc2ccccc21 [norcyclobenzaprine] : 76 nM

* * *

PROTOCOL_DESCRIPTION: in vivo
MEASUREMENT_SETUP: female, beagle, dog, iv, 0.14 mg/kg, Cyclobenzaprine plasma concentration
Where a name gives a salt, the structure may show the parent alone.
ASSAY_METRIC: concentration at 24 h (ng/mL)
Field: numeric (ng/mL). Do not append units.

// concentration at 24 h value for CN(C)CCC=C1c2ccccc2C=Cc2ccccc21 [cyclobenzaprine HCl] : 0.1

* * *

PROTOCOL_DESCRIPTION: in vivo
MEASUREMENT_SETUP: female, beagle, dog, iv, 1.79 mg, AUC0-24 h
ASSAY_METRIC: AUC(0-t) (ng·h/mL)
Field: numeric (ng·h/mL). Do not append units.

// AUC(0-t) value for CN(C)CCC=C1c2ccccc2C=Cc2ccccc21 : 43.5

* * *

TARGET_OF_ASSAY: histamine H1 receptor (Homo sapiens)
Sequence (P35367 whole entry): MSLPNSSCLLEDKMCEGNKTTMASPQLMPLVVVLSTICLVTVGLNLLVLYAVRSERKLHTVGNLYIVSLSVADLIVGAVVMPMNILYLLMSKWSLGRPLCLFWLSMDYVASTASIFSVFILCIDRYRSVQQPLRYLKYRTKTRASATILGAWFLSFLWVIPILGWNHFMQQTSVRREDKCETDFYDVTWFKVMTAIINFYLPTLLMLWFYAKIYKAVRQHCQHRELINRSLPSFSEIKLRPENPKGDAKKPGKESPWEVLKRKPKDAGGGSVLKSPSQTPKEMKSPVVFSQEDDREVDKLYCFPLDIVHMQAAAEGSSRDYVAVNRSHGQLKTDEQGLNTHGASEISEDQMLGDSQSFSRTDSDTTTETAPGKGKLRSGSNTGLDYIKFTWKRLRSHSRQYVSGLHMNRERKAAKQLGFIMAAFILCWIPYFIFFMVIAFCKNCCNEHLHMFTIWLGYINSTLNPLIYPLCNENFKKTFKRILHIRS
PROTOCOL_DESCRIPTION: Equilibrium receptor binding, recombinant human receptor
MEASUREMENT_SETUP: H1
ASSAY_METRIC: pKi
Please note pKi is a logarithmic value: minus log10 of concentration in mol/L. Answer with that number alone.

Record CN(C)CCC=C1c2ccccc2C=Cc2ccccc21 / histamine H1 receptor (Homo sapiens), pKi recorded as 8.89

* * *

PROTOCOL_DESCRIPTION: clinical
MEASUREMENT_SETUP: human, in vivo, 2.4 mg, AUC0-45min
Method: Treatment A: A single dose of one TNX-102 2.4 mg SL tablet (with phosphate). Subjects were asked to keep the tablet under the tongue until dissolved and not to crush or chew it. Subjects were asked not to drink any water until at least 1 hour after dosing. Treatment B: A single dose of one TNX-102-A 2.4 mg SL tablet (without phosphate). […] Partial AUC at different times were calculated to examine the effect of sublingual administration on absorption.
ASSAY_METRIC: AUC(0-t)

// AUC(0-t) value for CN(C)CCC=C1c2ccccc2C=Cc2ccccc21 : ~0.33 ng·h/mL

* * *

TARGET_OF_ASSAY: adrenergic alpha-2B receptor (Alpha2B) (Homo sapiens, UniProt P18089)
Sequence (P18089 whole entry): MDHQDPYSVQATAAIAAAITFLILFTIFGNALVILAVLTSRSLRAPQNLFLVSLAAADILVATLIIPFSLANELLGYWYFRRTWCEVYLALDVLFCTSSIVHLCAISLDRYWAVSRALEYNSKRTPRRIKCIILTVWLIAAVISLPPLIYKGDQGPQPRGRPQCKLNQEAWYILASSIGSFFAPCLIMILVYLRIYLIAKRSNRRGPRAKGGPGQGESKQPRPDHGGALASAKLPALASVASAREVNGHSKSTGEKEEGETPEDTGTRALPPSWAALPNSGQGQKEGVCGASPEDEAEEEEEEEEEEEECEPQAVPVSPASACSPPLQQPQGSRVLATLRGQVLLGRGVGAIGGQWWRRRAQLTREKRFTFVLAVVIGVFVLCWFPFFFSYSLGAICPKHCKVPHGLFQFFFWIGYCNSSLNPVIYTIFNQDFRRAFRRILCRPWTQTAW
PROTOCOL_DESCRIPTION: Equilibrium receptor binding, recombinant human receptor
ASSAY_METRIC: pKi
Please note pKi is a logarithmic value: minus log10 of concentration in mol/L. Answer with that number alone.

SMILES_TEXT	pKi
CN(C)CCC=C1c2ccccc2C=Cc2ccccc21	7.68

Consider now this further compound.
// pKi value for CNCCC=C1c2ccccc2C=Cc2ccccc21 : 6.82

* * *

PROTOCOL_DESCRIPTION: in vivo
MEASUREMENT_SETUP: female, beagle, dog, po, 0.14 mg/kg, Cyclobenzaprine plasma concentration
Counter-ions that a name gives are not always drawn.
ASSAY_METRIC: concentration at 8 h

// concentration at 8 h value for CN(C)CCC=C1c2ccccc2C=Cc2ccccc21 [cyclobenzaprine HCl] : 0.126 ng/mL

* * *

PROTOCOL_DESCRIPTION: in vivo
MEASUREMENT_SETUP: female, beagle, dog, po, 0.14 mg/kg, Cl (Cl/F)
Structures can show the parent of a compound that is named as a salt.
ASSAY_METRIC: CL/F (mL/min/kg)
Field: numeric (mL/min/kg). Do not append units.

// CL/F value for CN(C)CCC=C1c2ccccc2C=Cc2ccccc21 [cyclobenzaprine HCl] : 1210

* * *

TARGET_OF_ASSAY: 5-HT6 (Homo sapiens, UniProt P50406)
Sequence (P50406 whole entry): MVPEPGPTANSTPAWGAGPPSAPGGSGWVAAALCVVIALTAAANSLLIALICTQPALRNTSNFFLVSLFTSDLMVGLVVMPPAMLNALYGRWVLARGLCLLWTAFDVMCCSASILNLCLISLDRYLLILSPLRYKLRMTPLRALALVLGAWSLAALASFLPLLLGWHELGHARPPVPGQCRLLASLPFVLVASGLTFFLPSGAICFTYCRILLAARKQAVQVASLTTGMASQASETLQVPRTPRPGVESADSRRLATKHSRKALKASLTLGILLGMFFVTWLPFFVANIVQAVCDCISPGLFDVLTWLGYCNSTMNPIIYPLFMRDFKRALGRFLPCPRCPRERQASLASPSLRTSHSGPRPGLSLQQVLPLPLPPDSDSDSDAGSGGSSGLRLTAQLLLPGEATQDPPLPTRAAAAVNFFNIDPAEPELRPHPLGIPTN
PROTOCOL_DESCRIPTION: Functional antagonism (Table 69)
ASSAY_METRIC: IC50

COMPOUND	TARGET_OF_ASSAY	IC50
CN(C)CCC=C1c2ccccc2C=Cc2ccccc21 [cyclobenzaprine]	5-HT6 (Homo sapiens, UniProt P50406)	2 µM

// IC50 value for CNCCC=C1c2ccccc2C=Cc2ccccc21 [norcyclobenzaprine] : 2.8 µM

* * *

PROTOCOL_DESCRIPTION: in vivo
MEASUREMENT_SETUP: beagle, dog, Cmax
Counter-ions that a name gives are not always drawn.
ASSAY_METRIC: Cmax (ng/mL)
Field: numeric (ng/mL). Do not append units.

// Cmax value for CN(C)CCC=C1c2ccccc2C=Cc2ccccc21 [cyclobenzaprine HCl] : 75.6

* * *

PROTOCOL_DESCRIPTION: clinical
MEASUREMENT_SETUP: human, in vivo, 2.4 mg, AUC0-5.5 h
ASSAY_METRIC: AUC(0-t)

// AUC(0-t) value for CN(C)CCC=C1c2ccccc2C=Cc2ccccc21 [cyclobenzaprine] : ~10.1 ng·h/mL

* * *

TARGET_OF_ASSAY: 5-HT2B (Homo sapiens, UniProt P41595)
Construct: expressed in transfected cells
Sequence (P41595 whole entry): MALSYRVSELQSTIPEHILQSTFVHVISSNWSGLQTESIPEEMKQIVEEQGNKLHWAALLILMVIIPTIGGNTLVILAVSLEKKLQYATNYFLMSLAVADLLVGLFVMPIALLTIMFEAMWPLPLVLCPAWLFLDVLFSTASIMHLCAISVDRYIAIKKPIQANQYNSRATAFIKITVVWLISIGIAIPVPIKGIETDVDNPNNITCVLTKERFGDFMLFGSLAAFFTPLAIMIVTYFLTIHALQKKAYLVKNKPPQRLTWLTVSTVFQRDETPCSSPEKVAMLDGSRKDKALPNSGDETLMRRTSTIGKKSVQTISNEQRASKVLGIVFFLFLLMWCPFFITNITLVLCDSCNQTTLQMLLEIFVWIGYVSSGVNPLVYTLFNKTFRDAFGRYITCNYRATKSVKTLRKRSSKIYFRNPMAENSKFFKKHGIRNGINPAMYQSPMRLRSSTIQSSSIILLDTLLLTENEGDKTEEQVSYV
PROTOCOL_DESCRIPTION: G-protein-dependent signal transduction, intracellular Ca2+ mobilization
Format: cell-based
MEASUREMENT_SETUP: Ca2+ mobilization, read-out: IC50, functional antagonist
ASSAY_METRIC: pIC50
Please note pIC50 is a logarithmic value: minus log10 of concentration in mol/L. Answer with that number alone.

SMILES_TEXT	pIC50
CNCCC=C1c2ccccc2C=Cc2ccccc21	6.24

Consider now this further compound.
// pIC50 value for CN(C)CCC=C1c2ccccc2C=Cc2ccccc21 : 7.00

* * *

PROTOCOL_DESCRIPTION: clinical
MEASUREMENT_SETUP: human, in vivo, 2.4 mg, AUC0-3 h
Procedure: Treatment A: A single dose of one TNX-102 2.4 mg SL tablet (with phosphate). Subjects were asked to keep the tablet under the tongue until dissolved and not to crush or chew it. Subjects were asked not to drink any water until at least 1 hour after dosing. Treatment B: A single dose of one TNX-102-A 2.4 mg SL tablet (without phosphate). […] Partial AUC at different times were calculated to examine the effect of sublingual administration on absorption.
ASSAY_METRIC: AUC(0-t)

// AUC(0-t) value for CN(C)CCC=C1c2ccccc2C=Cc2ccccc21 : ~3.93 ng·h/mL

* * *

Consider the following molecules and their measured pIC50 readings.
TARGET_OF_ASSAY: muscarinic M1 receptor (Homo sapiens, UniProt P11229)
Sequence (P11229 whole entry): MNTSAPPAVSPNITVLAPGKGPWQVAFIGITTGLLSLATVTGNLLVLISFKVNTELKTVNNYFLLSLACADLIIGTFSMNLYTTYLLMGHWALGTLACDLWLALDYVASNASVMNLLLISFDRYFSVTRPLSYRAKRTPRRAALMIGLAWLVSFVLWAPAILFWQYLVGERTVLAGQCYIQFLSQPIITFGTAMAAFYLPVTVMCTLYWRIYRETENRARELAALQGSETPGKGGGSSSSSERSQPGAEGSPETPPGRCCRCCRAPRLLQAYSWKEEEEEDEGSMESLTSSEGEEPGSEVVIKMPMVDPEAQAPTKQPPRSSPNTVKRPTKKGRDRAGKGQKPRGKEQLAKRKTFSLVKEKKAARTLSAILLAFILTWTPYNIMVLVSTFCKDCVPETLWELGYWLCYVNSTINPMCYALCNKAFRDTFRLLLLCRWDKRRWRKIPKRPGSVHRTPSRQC
PROTOCOL_DESCRIPTION: G-protein-independent signal transduction, β-arrestin signaling
Type: cell-based
Parameters: expressed in transfected cells
MEASUREMENT_SETUP: M1, β-arrestin signaling; read-out: IC50, functional antagonist
Please note pIC50 is a logarithmic value: minus log10 of concentration in mol/L. Answer with that number alone.

// pIC50 value for CN(C)CCC=C1c2ccccc2C=Cc2ccccc21 [cyclobenzaprine] : 7.09

// pIC50 value for CNCCC=C1c2ccccc2C=Cc2ccccc21 [norcyclobenzaprine] : 6.58

* * *

TARGET_OF_ASSAY: 5-HT5A receptor (Homo sapiens)
Sequence (P47898 whole entry): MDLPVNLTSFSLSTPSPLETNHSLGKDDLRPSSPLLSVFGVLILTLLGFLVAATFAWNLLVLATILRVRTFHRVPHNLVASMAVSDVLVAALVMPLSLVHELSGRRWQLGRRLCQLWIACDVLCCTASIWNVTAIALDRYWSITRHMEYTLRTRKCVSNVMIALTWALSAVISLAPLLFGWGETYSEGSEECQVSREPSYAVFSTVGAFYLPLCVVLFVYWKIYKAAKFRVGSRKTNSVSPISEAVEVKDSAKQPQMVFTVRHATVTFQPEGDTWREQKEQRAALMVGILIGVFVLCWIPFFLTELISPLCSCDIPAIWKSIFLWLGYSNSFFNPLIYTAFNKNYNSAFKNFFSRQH
PROTOCOL_DESCRIPTION: Equilibrium receptor binding, recombinant human receptor
ASSAY_METRIC: pKi
Please note pKi is a logarithmic value: minus log10 of concentration in mol/L. Answer with that number alone.

SMILES_TEXT	pKi
CNCCC=C1c2ccccc2C=Cc2ccccc21	5.80

// pKi value for CN(C)CCC=C1c2ccccc2C=Cc2ccccc21 : 6.14

* * *

TARGET_OF_ASSAY: 5-HT2A (Homo sapiens, UniProt P28223)
Construct: expressed in transfected cells
Sequence (P28223 whole entry): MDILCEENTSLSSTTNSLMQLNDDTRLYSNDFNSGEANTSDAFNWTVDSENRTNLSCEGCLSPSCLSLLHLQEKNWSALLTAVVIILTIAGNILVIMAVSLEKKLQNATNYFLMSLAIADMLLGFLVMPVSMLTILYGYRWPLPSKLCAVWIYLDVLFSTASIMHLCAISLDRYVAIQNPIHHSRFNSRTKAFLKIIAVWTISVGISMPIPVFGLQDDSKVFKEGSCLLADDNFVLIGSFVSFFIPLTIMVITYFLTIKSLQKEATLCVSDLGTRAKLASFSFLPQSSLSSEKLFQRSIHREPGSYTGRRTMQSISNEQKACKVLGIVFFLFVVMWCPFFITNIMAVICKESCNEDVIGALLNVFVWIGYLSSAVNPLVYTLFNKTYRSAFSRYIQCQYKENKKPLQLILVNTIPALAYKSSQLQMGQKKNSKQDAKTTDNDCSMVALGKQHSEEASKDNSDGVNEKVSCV
PROTOCOL_DESCRIPTION: G-protein-dependent signal transduction, turnover of inositol triphosphate (IP)
Type: cell-based
MEASUREMENT_SETUP: read-out: IC50 (nM) (Antagonist)
Consider the following molecules and their measured IC50 readings.
Field: numeric (nM). Do not append units.

MOLECULE	TEST_VALUE
CN(C)CCC=C1c2ccccc2C=Cc2ccccc21 [cyclobenzaprine]	210

Consider now this further molecule.
// IC50 value for CNCCC=C1c2ccccc2C=Cc2ccccc21 [norcyclobenzaprine] : 450
